Below, each of the compounds is paired with its reported melting point value.

Here's what some known entries look like.
# COMPOUND, melting point
data = [
    ("CCn1c(C(C)NS(=O)(=O)/C=C/c2ccccc2)cnc1Oc1cccc(N2CCN(C)CC2)c1 (stereo not shown)", "141 to 143 °C"),
    ("CCn1c(C(NS(=O)(=O)c2ccc(Cl)c(Cl)c2)c2ccccc2)cnc1Oc1ccc(F)cc1 (stereo not shown)", "157.5 to 158 °C"),
]

Asked: Quick one: melting point of CCn1c(C(C)NS(=O)(=O)c2ccc(Cl)c(Cl)c2)cnc1OCc1ccccc1 (stereo not shown) ?
Given back: 102 to 103 °C

Asked: Quick one: melting point of C=CCCCOc1ncc(C(C)NS(=O)(=O)c2ccc(Cl)c(Cl)c2)n1CC (stereo not shown) ?
Given back: 152.5 °C

----------
Target: human Edg-1 (S1P1) (Homo sapiens)
Construct: expressed in transfected cells; host or cells: HEK-293
Experiment: S1P1 binding inhibition test (membrane, [33P]-S1P)
Details: compound 10 μM; [33P]-S1P 0.1 nM; human Edg-1 (S1P1) HEK-293 membrane fraction; read-out: Binding test (membrane) % inhibition (10 μM)
Procedure: The membrane fraction was obtained by treating the cells with a solubilizing buffer (1 mM Tris/HCl, pH 7.2) for 10 minutes on ice, centrifuging at 1000×g for 5 minutes to remove insoluble fractions, and then centrifuging at 40000×g for 30 minutes at 4° C. […] The same procedure was carried out in the absence of the test compound, and the amount (B) of [^33P]-S1P bound was calculated. […]
EXPERIMENTAL_READOUT: inhibition at 10 µM (%)
Response body: numeric value in %, unit text excluded.

Here's what some known entries look like.
# COMPOUND, EXPERIMENTAL_READOUT, READOUT_UNITS, VALUE_REPORTED
rows = [
    ("CCn1c(C(C)NS(=O)(=O)c2ccc(F)cc2C)cnc1Oc1ccc(C)cc1 (stereo not drawn)", "inhibition at 10 µM", "%", 86.4),
    ("CCn1c(Oc2ccc(C)cc2)cnc1C(C)NS(=O)(=O)c1ccc(Cl)c(Cl)c1 (stereo not drawn)", "inhibition at 10 µM", "%", 95.9),
    ("CCn1c(C(C)NS(=O)(=O)c2ccc(F)c(Cl)c2)cnc1Oc1ccc(C)cc1 (stereo not drawn)", "inhibition at 10 µM", "%", 106),
    ("CCn1c(C(C)NS(=O)(=O)c2ccc3c(c2)OCCO3)cnc1Oc1ccc(C)cc1 (stereo not drawn)", "inhibition at 10 µM", "%", 94.1),
    ("CCn1c(C(C)NS(=O)(=O)c2ccc(Cl)c(Cl)c2)cnc1Oc1ccc(OCCN2CCOCC2)cc1 (stereo not drawn)", "inhibition at 10 µM", "%", 102),
]

Asked: Quick one: inhibition at 10 µM of CCn1c(C(C)NS(=O)(=O)c2ccc(Cl)c(Cl)c2)cnc1OC1CCCCC1 (stereo not drawn) ?
Given back: 92

Asked: Quick one: inhibition at 10 µM of CCn1c(C(C)NS(=O)(=O)c2c(C)c(C)c(C)c(C)c2C)cnc1Oc1ccc(C)cc1 (stereo not drawn) ?
Given back: 72

Asked: Quick one: inhibition at 10 µM of CCC(NS(=O)(=O)c1ccc2c(Cl)cccc2c1)c1cnc(Oc2ccc(F)cc2)n1CC (stereo not drawn) ?
Given back: 101

Asked: Quick one: inhibition at 10 µM of CCn1c(C(C)NS(=O)(=O)c2cc(F)c(Cl)cc2F)cnc1Oc1ccc(C)cc1 (stereo not drawn) ?
Given back: 80.4

Asked: Quick one: inhibition at 10 µM of CCn1c(C(C)NS(=O)(=O)/C=C/c2ccccc2)cnc1Oc1ccc(C)cc1 (stereo not drawn) ?
Given back: 93.5

----------
Molecular target: human Edg-1 (S1P1) (Homo sapiens, UniProt P21453)
Sequence (P21453 whole entry): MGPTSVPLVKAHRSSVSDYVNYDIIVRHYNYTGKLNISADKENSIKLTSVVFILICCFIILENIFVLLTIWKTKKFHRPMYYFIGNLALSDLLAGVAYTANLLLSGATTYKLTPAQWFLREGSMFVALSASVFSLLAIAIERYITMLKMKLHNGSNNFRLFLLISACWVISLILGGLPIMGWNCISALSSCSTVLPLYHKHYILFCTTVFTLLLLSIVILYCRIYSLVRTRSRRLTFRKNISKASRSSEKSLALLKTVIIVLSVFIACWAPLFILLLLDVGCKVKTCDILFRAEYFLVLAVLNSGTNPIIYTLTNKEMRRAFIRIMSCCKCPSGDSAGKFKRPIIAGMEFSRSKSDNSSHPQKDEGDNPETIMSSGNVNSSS
EXPERIMENTAL_READOUT: Kd (pM)
Response body: numeric value in pM, unit text excluded.

Asked: Quick one: Kd of CCCCCCCCCCCCC/C=C/[C@@H](O)[C@@H](N)COP(=O)(O)O [[^33P]-S1P, Sphingosine-1-phosphate] ?
Given back: 150

----------
Molecular target: human Edg-1 (S1P1) (Homo sapiens)
Construct: expressed in transfected cells; host or cells: HEK-293
Test: S1P1 binding inhibition test (membrane, [33P]-S1P)
Details: compound 10 μM; [33P]-S1P 0.1 nM; human Edg-1 (S1P1) HEK-293 membrane fraction; read-out: Binding test (membrane) % inhibition (10 μM)
Protocol: The membrane fraction was obtained by treating the cells with a solubilizing buffer (1 mM Tris/HCl, pH 7.2) for 10 minutes on ice, centrifuging at 1000×g for 5 minutes to remove insoluble fractions, and then centrifuging at 40000×g for 30 minutes at 4° C. […] The same procedure was carried out in the absence of the test compound, and the amount (B) of [^33P]-S1P bound was calculated. […]
EXPERIMENTAL_READOUT: inhibition at 10 µM
Please report the result as a number followed by the unit.

# COMPOUND, inhibition at 10 µM
rows = [
    ("CCn1c(C(C)NS(=O)(=O)c2cccc3cnccc23)cnc1Oc1ccc(C)cc1 (centres unmarked)", "62%"),
    ("CCn1c(C(C)NS(=O)(=O)c2cc(F)cc(Cl)c2C)cnc1Oc1ccc(C)cc1 (centres unmarked)", "74.4%"),
    ("CCn1c(C(C)NS(=O)(=O)c2ccc(C)c(C)c2)cnc1Oc1ccc(C)cc1 (centres unmarked)", "104%"),
    ("CCn1c(C(C)NS(=O)(=O)c2ccc(Br)c(C(F)(F)F)c2)cnc1Oc1ccc(C)cc1 (centres unmarked)", "75.9%"),
    ("CCn1c(C(C)NS(=O)(=O)c2ccc(F)cc2Br)cnc1Oc1ccc(C)cc1 (centres unmarked)", "70.6%"),
    ("CCn1c(C(C)NS(=O)(=O)c2c(F)c(F)c(F)c(F)c2F)cnc1Oc1ccc(C)cc1 (centres unmarked)", "75.8%"),
    ("CCn1c(C(C)NS(=O)(=O)c2ccc(Cl)c(Cl)c2)cnc1Oc1ccc2ccncc2c1 (centres unmarked)", "99.6%"),
]

Asked: Quick one: inhibition at 10 µM of CCn1c(C(C)NS(=O)(=O)c2ccc(Cl)c3nonc23)cnc1Oc1ccc(C)cc1 (centres unmarked) ?
Given back: 68.1%

----------
Below, each of the compounds is paired with its reported melting point value.

# COMPOUND, melting point
measured = [
    ("CCn1c(C(C)NS(=O)(=O)c2ccc(Cl)c(Cl)c2)cnc1Oc1cccc(C2CCN(C)CC2)c1 (stereo not shown)", "161 to 163.5 °C"),
    ("CCn1c(C(Cc2ccc(F)cc2)NS(=O)(=O)c2ccc(Cl)c(Cl)c2)cnc1Oc1ccc(F)cc1 (stereo not shown)", "145.5 to 146.5 °C"),
    ("CCn1c(C(C)NS(=O)(=O)c2ccc3c(Cl)cccc3c2)cnc1Oc1cccc(N2CCN(C)CC2)c1 (stereo not shown)", "205.5 to 206 °C"),
    ("CCn1c(C(C)NS(=O)(=O)c2ccc(Cl)c(Cl)c2)cnc1Oc1cc(C)nc(C)c1 (stereo not shown)", "179 to 180 °C"),
    ("CC(NS(=O)(=O)c1ccc2c(Cl)cccc2c1)c1cnc(Oc2ccc(F)cc2)n1C (stereo not shown)", "134 to 135 °C"),
]

Asked: Quick one: melting point of CCn1c(C(C)NS(=O)(=O)c2ccc3c(Cl)ccc(Cl)c3c2)cnc1Oc1cccc(N2CCN(C)CC2)c1 (stereo not shown) ?
Given back: 220 to 223 °C

Asked: Quick one: melting point of CCn1c(C(C)NS(=O)(=O)c2ccc(Cl)c(Cl)c2)cnc1Oc1cccc(NC(C)=O)c1 (stereo not shown) ?
Given back: 213.5 to 215.5 °C

----------
Biological target: human Edg-1 (S1P1) (Homo sapiens, UniProt P21453)
Construct: expressed in transfected cells; host or cells: HEK-293
Assay: S1P1 binding inhibition test (membrane, [33P]-S1P)
Conditions: compound 10 μM; [33P]-S1P 0.1 nM; human Edg-1 (S1P1) HEK-293 membrane fraction; read-out: Binding test (membrane) % inhibition (10 μM)
I would appreciate it if you labelled entries condition met when inhibition at 10 µM is 90% or higher, otherwise condition not met.

Some entries whose results are on file:
# COMPOUND, ASSIGNED_CLASS
measured = [
    ("CCn1c(C(C)NS(=O)(=O)c2cccc(C)c2)cnc1Oc1ccc(C)cc1 (stereo not shown)", "condition not met"),
    ("CCn1c(C(C)NS(=O)(=O)c2ccc(F)c(F)c2)cnc1Oc1ccc(C)cc1 (stereo not shown)", "condition not met"),
    ("CCn1c(C(C)NS(=O)(=O)c2ccc(Br)cc2F)cnc1Oc1ccc(C)cc1 (stereo not shown)", "condition not met"),
    ("CCn1c(C(Cc2ccc(F)cc2)NS(=O)(=O)c2ccc3c(Cl)cccc3c2)cnc1Oc1ccc(F)cc1 (stereo not shown)", "condition met"),
    ("CCn1c(C(C)NS(=O)(=O)c2ccc(Cl)c(Cl)c2)cnc1Oc1cccc(NC(C)=O)c1 (stereo not shown)", "condition met"),
    ("CCn1c(C(C)NS(=O)(=O)c2cccc(Cl)c2F)cnc1Oc1ccc(C)cc1 (stereo not shown)", "condition not met"),
]

Asked: Can CCn1c(C(C)NS(=O)(=O)c2ccc(-c3ccno3)s2)cnc1Oc1ccc(C)cc1 (stereo not shown) be said to have inhibition at 10 µM at or above 90%?
Given back: condition not met
